- Study System: His6-SPAK CCT (mouse SPAK 459-556) (mouse) (UniProt Q9Z1W9)
- Experiment Description: fluorescence polarisation
Experimental Endpoint: Ki (µM)
Answer in µM, number only, no unit symbol.

Annotate the binder SAGKKFIVSPVPE [hWNK1 1253-1265 peptide, arginines replaced with lysine-lysine] with its measured Ki. 4.2
